Ref: ChEMBL document CHEMBL1961873

# MEASURED_TARGET: Mitogen-activated protein kinase 9 (Homo sapiens) (UniProt P45984);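 further: reported figure is the mean inhibition of JNK2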
# Sequence (P45984 whole entry, looked up): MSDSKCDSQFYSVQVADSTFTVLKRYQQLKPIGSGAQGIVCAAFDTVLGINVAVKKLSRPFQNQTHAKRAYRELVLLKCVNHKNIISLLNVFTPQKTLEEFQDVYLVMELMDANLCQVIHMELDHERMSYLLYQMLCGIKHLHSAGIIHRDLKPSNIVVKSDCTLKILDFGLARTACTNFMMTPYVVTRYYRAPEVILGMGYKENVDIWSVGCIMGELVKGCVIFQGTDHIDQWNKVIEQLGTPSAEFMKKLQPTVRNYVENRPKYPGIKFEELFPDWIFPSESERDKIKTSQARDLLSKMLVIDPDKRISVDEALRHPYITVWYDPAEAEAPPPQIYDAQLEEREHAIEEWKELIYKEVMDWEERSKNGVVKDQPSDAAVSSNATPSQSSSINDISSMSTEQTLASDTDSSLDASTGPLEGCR
# SETUP_CONDITIONS: at 1 µM
Entries get a class label from measured inhibition. See ranges: A (below 4%), B (4% to below 7%), C (7% or more)

{"COMPOUND": "CCN1CCC(C(=O)Nc2n[nH]c3nnc(-c4cccc(F)c4F)cc23)CC1", "CLASS_LABEL": "A"}
{"COMPOUND": "CC(C)c1ccc(-c2cc(-c3c[nH]nc3-c3ccccn3)ccn2)cc1", "CLASS_LABEL": "A"}
{"COMPOUND": "c1ccc(-c2n[nH]cc2-c2ccnc(-c3ccc(OCCn4ccnc4)cc3)c2)nc1", "CLASS_LABEL": "C"}
{"COMPOUND": "NS(=O)(=O)c1ccc(N/N=C2\\C(=O)Nc3ccc(C(=O)NCc4ccncc4)cc32)cc1", "CLASS_LABEL": "C"}
{"COMPOUND": "COc1cc(N2CCN(C(C)C)CC2)ccc1Nc1nc(Nc2cccc(F)c2C(=O)O)c2cc[nH]c2n1", "CLASS_LABEL": "C"}
{"COMPOUND": "COc1cc2c(cc1Nc1nc(Nc3cccc(F)c3C(N)=O)c3cc[nH]c3n1)N(C(=O)CN1CCN(C(C)C)CC1)CC2", "CLASS_LABEL": "C"}
{"COMPOUND": "CN(c1ccc(NC(=O)NCCN2CCOCC2)cc1)c1ccnc(Nc2ccc(CS(C)(=O)=O)cc2)n1", "CLASS_LABEL": "A"}
{"COMPOUND": "CS(=O)(=O)Nc1ccc(-c2cc(-c3ccccc3)cc(C(N)=O)c2N)cc1", "CLASS_LABEL": "A"}
{"COMPOUND": "COc1ccc(-c2nn3ncccc3c2-c2ccnc(Nc3ccc(F)c(F)c3)n2)cc1", "CLASS_LABEL": "C"}
{"COMPOUND": "O=C(O[C@H]1CN[C@H](C#Cc2cc3ncnc(Nc4ccc5c(cnn5Cc5ccccc5)c4)c3s2)C1)N1CCOCC1", "CLASS_LABEL": "A"}
{"COMPOUND": "CS(=O)(=O)Nc1ccc(-c2ccc3c(NC(=O)C4CC4)n[nH]c3c2)cc1", "CLASS_LABEL": "A"}
{"COMPOUND": "COC(=O)Nc1nc2ccc(Oc3ccc(NC(=O)Nc4cc(C(F)(F)F)ccc4F)cc3)cc2s1", "CLASS_LABEL": "A"}
{"COMPOUND": "COc1cc(N2CCN(C(C)C)CC2)ccc1Nc1nc(Nc2cccc3ncccc23)c2cc[nH]c2n1", "CLASS_LABEL": "B"}
{"COMPOUND": "CC1=C(C(=O)Nc2ccc3[nH]nc(C)c3c2)C(c2ccc(C(F)(F)F)cc2)CC(=O)N1 (stereo unspecified)", "CLASS_LABEL": "A"}
{"COMPOUND": "Cn1c(-c2nonc2N)nc2cnccc21", "CLASS_LABEL": "B"}
{"COMPOUND": "N#Cc1ccc2c(-c3ccnc(NC4CC4)n3)c(-c3ccc(F)cc3)nn2c1", "CLASS_LABEL": "C"}
{"COMPOUND": "CC1(C)CC(n2cnc(-c3ccc(F)cc3)c2-c2ccnc(N)n2)CC(C)(C)N1", "CLASS_LABEL": "B"}
{"COMPOUND": "CS(=O)(=O)CCNCc1ccc(-c2ccc3ncnc(Nc4ccc(OCc5cccc(C(F)(F)F)c5)cc4)c3c2)o1", "CLASS_LABEL": "C"}
{"COMPOUND": "CCn1c(-c2nonc2N)nc2cncc(C(=O)NCCNC)c21", "CLASS_LABEL": "B"}
{"COMPOUND": "CN(C)CCNC(=O)Nc1ccc(N(C)c2ccnc(Nc3ccc(CS(C)(=O)=O)cc3)n2)cc1", "CLASS_LABEL": "B"}
{"COMPOUND": "CS(=O)(=O)CCNCc1ccoc1-c1ccc2ncnc(Nc3ccc(OCc4ccccc4)cc3)c2c1", "CLASS_LABEL": "A"}
{"COMPOUND": "Cc1cc(O)cc(C)c1/C=C/c1cncc(C(N)=O)c1", "CLASS_LABEL": "A"}
{"COMPOUND": "COc1cccc(Nc2nccc(-c3cnn4ncccc34)n2)c1", "CLASS_LABEL": "C"}
{"COMPOUND": "c1cnn2ncc(-c3ccnc(NCCCN4CCOCC4)n3)c2c1", "CLASS_LABEL": "B"}
{"COMPOUND": "Cc1c2ccc(N(C)c3ccnc(Nc4cccc(S(N)(=O)=O)c4)n3)cc2nn1C", "CLASS_LABEL": "C"}
{"COMPOUND": "Cc1nnc(-c2cccc(-c3ccc(C(=O)NCC4CC4)cc3)c2)o1", "CLASS_LABEL": "B"}
{"COMPOUND": "NC(=O)c1ccc2c(-c3ccnc(NCCCO)n3)c(-c3ccc(F)cc3)nn2c1", "CLASS_LABEL": "C"}
{"COMPOUND": "CNC(=O)c1sc(-n2cnc3cc(OC)c(OC)cc32)cc1OCc1ccccc1C(F)(F)F", "CLASS_LABEL": "B"}
{"COMPOUND": "COC(=O)Nc1nc2cc(Oc3ccc(NC(=O)Nc4ccccc4)cc3)ccc2[nH]1", "CLASS_LABEL": "A"}
{"COMPOUND": "CCOc1ccc2c(-c3ccnc(Nc4cc(OC)cc(C(F)(F)F)c4)n3)cnn2n1", "CLASS_LABEL": "B"}
{"COMPOUND": "CNC(=O)c1cncc(/C=C/c2ccccc2C)c1", "CLASS_LABEL": "B"}
{"COMPOUND": "CCS(=O)(=O)c1ccc(OC)c(Nc2ncc(-c3cccc(C(C)=O)c3)o2)c1", "CLASS_LABEL": "A"}
{"COMPOUND": "COc1c(C(N)=O)cc(-c2ccc(Cl)cc2)cc1-c1ccc(S(N)(=O)=O)cc1", "CLASS_LABEL": "C"}
